Source of measurements: patent EP1090023B1

Measured A1 (EC50 values as a ratio of that of NECA), listed per entry for reference.
target_system: adenosine 1 (Homo sapiens, UniProt P30542)
Sequence (P30542 whole entry): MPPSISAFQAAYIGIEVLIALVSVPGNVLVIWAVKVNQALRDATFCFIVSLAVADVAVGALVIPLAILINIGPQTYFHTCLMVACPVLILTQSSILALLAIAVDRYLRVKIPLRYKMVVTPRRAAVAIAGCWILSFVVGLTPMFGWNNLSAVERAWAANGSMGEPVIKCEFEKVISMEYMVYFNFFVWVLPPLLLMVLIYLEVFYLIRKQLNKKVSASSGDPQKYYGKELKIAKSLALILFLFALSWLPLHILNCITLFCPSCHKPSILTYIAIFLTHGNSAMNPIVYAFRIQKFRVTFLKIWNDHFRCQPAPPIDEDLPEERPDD
assay_summary: Agonist activity against adenosine receptor subtypes, CHO cells with cAMP response element/SPAP reporter (forskolin-enhanced cAMP)
Format: cell-based
run_parameters: ratio to EC50 of NECA; transfected CHO cells; effect on forskolin-enhanced cAMP via SPAP
Returns: the value as a bare number; no unit string appended.

INSERT INTO assay_data (compound, measured_result) VALUES
  ('CCC(CC)Nc1nc(N[C@H]2CC[C@H](N)CC2)nc2c1ncn2[C@@H]1O[C@H](c2nnc(C3CC3)o2)[C@@H](O)[C@H]1O.O=CO.O=CO (relative stereo)', 1105.6),
  ('CC(C)c1nnc([C@H]2O[C@@H](n3cnc4c(NCC(c5ccccc5)c5ccccc5)nc(N[C@H]5CC[C@H](N)CC5)nc43)[C@H](O)[C@@H]2O)[nH]1.O=CO', 1453.5),
  ('CCc1nnc([C@H]2O[C@@H](n3cnc4c(NCC(c5ccccc5)c5ccccc5)nc(NCCN5CCCCC5)nc43)[C@H](O)[C@@H]2O)o1.O=CO', 101.96),
  ('CCc1nnc([C@H]2O[C@@H](n3cnc4c(NCC(c5ccccc5)c5ccccc5)nc(N[C@H](CO)C(C)C)nc43)[C@H](O)[C@@H]2O)[nH]1.O=CO', 5327),
  ('CCc1cc([C@H]2O[C@@H](n3cnc4c(NC(CC)CC)nc(NCCN5CCCCC5)nc43)[C@H](O)[C@@H]2O)no1.O=CO.O=CO', 21.82);

Continue with the compound presented below.
Requested field: A1 (EC50 values as a ratio of that of NECA). Item: CCn1cnc([C@H]2O[C@@H](n3cnc4c(NCC(c5ccccc5)c5ccccc5)nc(NCCc5cn(C)cn5)nc43)[C@H](O)[C@@H]2O)n1.O=CO.O=CO
1753.5
